Here the recorded Ki is given for each entry.
Biological target: human α5β3γ2 receptors (α5-GABAA receptor) (Homo sapiens (Human), UniProt P18507+P31644)
Assay: 3H-flunitrazepam competition binding, human α5β3γ2 GABAA receptor
Details: HEK293 cell membranes, 1 nM 3H-flunitrazepam; read-out: α5-GABAAR Ki
Experimental: The affinity of the compound to each subtype of GABAA receptor was determined by competing for the binding of ^3H-flunitrazepam to HEK293 cells stably expressing human α1β3γ2, α2β3γ2, α3β3γ2, and α5β3γ2 receptors. The cells were suspended in 50 mM Tris-HCl buffer (pH=7.4), homogenized 10 times on ice with a homogenizer for 20 seconds, and centrifuged at 1000 g for 10 minutes at 4° C. […] Protein was measured (BCA method, Pierce), and 1 mL aliquots were prepared and stored at −80° C. […]
Express it in nM; write the number only.

Answered examples (3):
Query smiles: Cc1nnn(-c2ccc(C(F)F)cc2)c1COc1ccc(N2CCN(CCN3CCC(F)(F)CC3)C(=O)C2)nn1
Ki [nM]: 1.53
--
Query smiles: O=C1CN(c2ccc(OCc3c(Cl)nnn3-c3ccc(Cl)cc3)nn2)CCN1
Ki [nM]: 1.96
--
Query smiles: CCNC(=O)[C@@H]1CCCN1c1ccc(OCc2c(C)nnn2-c2ccc(C(F)F)cc2)nn1
Ki [nM]: 115

Task: Tell us which Ki value is on record for O=C1NCCN2CCN(c3ccc(OCc4c(Cl)nnn4-c4ccc(C(F)F)cc4)nn3)C[C@@H]12
Output: 1.21

====

Biological target: human α1β3γ2 receptors (Homo sapiens (Human), UniProt P14867+P18507)
Experiment: 3H-flunitrazepam competition binding, human α1β3γ2 GABAA receptor
Conditions: HEK293 cell membranes, 1 nM 3H-flunitrazepam; read-out: Ki α1
Measurement kind: pKi
Schema: pKi number; meaning minus log10 of the concentration expressed in molar units.

Some solved cases for reference:
Query smiles: Cc1nnn(-c2ccc(C(F)F)cc2)c1COc1ccc(N2CCN3CCNC(=O)[C@H]3C2)nn1
Observed value: 6.75
--
Query smiles: O=C1NCCN2CCN(c3ccc(OCc4c(Cl)nnn4-c4ccc(C(F)F)cc4)nn3)C[C@@H]12
Observed value: 6.85
--
Query smiles: CCNC(=O)C1CN(c2ccc(OCc3c(C)nnn3-c3ccc(C(F)F)cc3)nn2)C1
Observed value: 6.83

Here's the next entry for you.
Task: Name the recorded pKi of the compound listed here: Cc1nnn(-c2ccc(F)cc2)c1COc1ccc(N2CCNC(=O)C2)nn1
Output: 6.08

====

Target: human α5β3γ2 receptors (α5-GABAA receptor) (Homo sapiens (Human), UniProt P18507+P31644)
Assay: 3H-flunitrazepam competition binding, human α5β3γ2 GABAA receptor
Conditions: HEK293 cell membranes, 1 nM 3H-flunitrazepam; read-out: α5-GABAAR Ki
Measurement kind: log10 Ki (log10 of the value in nM)
Use the decimal logarithm of Ki (nM).

Task: Please report the measured log10 Ki for Cc1nnn(-c2ccc(C(F)F)cc2)c1COc1ccc(N2CC(=O)N3CC4CC3(C4)C2)nn1 [Example 179] tested on human α5β3γ2 receptors (α5-GABAA receptor) (Homo sapiens (Human), UniProt P18507+P31644).
Output: 0.80

Task: Find log10 Ki for Cc1nnn(-c2ccc(C(F)F)cc2)c1COc1ccc(N2CCn3cnnc3C2)nn1 [Example 84] on human α5β3γ2 receptors (α5-GABAA receptor) (Homo sapiens (Human), UniProt P18507+P31644) and write it down.
Output: -0.22

Task: Send back human α5β3γ2 receptors (α5-GABAA receptor) (Homo sapiens (Human), UniProt P18507+P31644) log10 Ki of Cc1nnn(-c2ccc(C(F)F)cc2)c1COc1ccc(N2CC(=O)N3CCOC[C@@H]3C2)nn1 [Example 174] only.
Output: 0.14

Task: Fill in log10 Ki for Cc1nnn(-c2ccc(Cl)cn2)c1COc1ccc(N2CCNC(=O)C2)nn1 [Example 72] tested with human α5β3γ2 receptors (α5-GABAA receptor) (Homo sapiens (Human), UniProt P18507+P31644).
Output: -0.34
